These measurements were taken from patent US20240043533A1.

Parameter: pKd. Scope: all listed entries.
Target: T1, extracellular domain of cyno ILT3 (cynoILT3-ECD) (cynomolgus monkey)
T1 chain: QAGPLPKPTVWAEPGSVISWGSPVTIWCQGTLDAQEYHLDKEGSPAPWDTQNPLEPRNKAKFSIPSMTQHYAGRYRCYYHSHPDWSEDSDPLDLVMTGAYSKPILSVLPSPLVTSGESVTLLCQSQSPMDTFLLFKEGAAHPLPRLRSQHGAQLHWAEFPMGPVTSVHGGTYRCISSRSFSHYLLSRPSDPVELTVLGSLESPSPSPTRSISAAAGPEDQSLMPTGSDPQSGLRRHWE
Assay: SPR (Biacore), antibody captured via anti-Fc on CM5 chip, soluble ILT3-ECD injected
pKd: −log10 of the molar value.
observation_type: pKd

binder	reported_result
Hz48A6 C1/C2 (antibody, V domains shown) VH: EVQLVESGGGLVQPGGSLRLSCAASGFTFSSYGMSWVRQAPGKGLEWVATISSGGTYTFYPDSVKGRFTISRDNSKNTLYLQMNSLRAEDTAVYYCARRGWLLHYYAMDYWGQGTLVTVSS VL: DIQLTQSPSFLSASVGDRVTITCRPSESVDSFGNSFMHWFQQKPGKAPKLLIYLSSKLESGVPSRFSGSGSGTEFTLTISSLQPEDFATYYCQQHNEDPFTFGQGTKVEIK	6.11
Hz48A6 B1/C2 (antibody, V domains shown) VH: EVQLVESGGGLMQPGGSLRLSCAASGFTFSSYGMSWVRQAPGKGLEWVATISSGGTYTFYPDSVKGRFTISRDNAKNSLYLQMNSLRAEDTAVYYCARRGWLLHYYAMDYWGQGTSVTVSS VL: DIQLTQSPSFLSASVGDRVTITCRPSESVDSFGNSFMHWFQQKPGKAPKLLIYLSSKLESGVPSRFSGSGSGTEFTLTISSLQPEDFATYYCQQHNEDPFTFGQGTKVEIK	6.27
Hz48A6 B0/C2 (antibody, V domains shown) VH: EVQLVESGGGLVQPGGSLRLSCAASGFTFSSYGMSWVRQAPGKGLEWVATISSGGTYTFYPDSVKGRFTISRDNAKNSLYLQMNSLRAEDTAVYYCARRGWLLHYYAMDYWGQGTSVTVSS VL: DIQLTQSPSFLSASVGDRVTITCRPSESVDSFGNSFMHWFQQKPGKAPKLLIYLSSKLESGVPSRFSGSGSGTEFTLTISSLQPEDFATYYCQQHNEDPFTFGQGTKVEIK	6.34
